Measured values drawn from PubChem BioAssay (NCI) for this set.

# Test system: DU-145 prostate
# method: NCI tumour cell line growth inhibition, 48 h; in the data active = GI50 below about 0.43 µM; inactive = the rest
# valid calls are active, inactive; nothing else

Asked: // outcome(item) with item = O=C1Nc2ccc(C(=O)c3ccco3)cc2/C1=C/c1cc(Cl)c(O)c(Cl)c1
Given back: inactive

Asked: What was the test verdict on COc1ccc(/C=N\NC(=O)CN2CCN(c3cc4c(cc3F)c(=O)c(C(=O)N/N=C/c3ccc(OC)c(OC)c3)cn4C3CC3)CC2)cc1OC ?
Given back: inactive

Asked: // outcome(item) with item = O=C(O[C@H]1CN[C@H](C#Cc2cc3ncnc(Nc4ccc5c(ccn5Cc5cc(F)ccc5F)c4)c3s2)C1)N1CCOCC1
Given back: inactive

Asked: Record lookup: outcome of this test for CC(=O)c1c(C)[nH]c(-c2nc3ccc(N4CCN(C)CC4)cc3[nH]2)c1-c1ccc(OCC2CCOCC2)cc1 ?
Given back: inactive

Asked: Kindly provide the recorded test outcome for the following compound: NOCC(=O)O
Given back: inactive

Asked: Could you check what this test reported for Cc1nc2sc(C(=O)Nc3cccc(Cl)c3C)c(N)c2cc1C(=O)/C=C/c1ccccc1 ?
Given back: inactive

Asked: Test call, this compound: Cc1c[nH]c2c(O)cc3c(c12)[C@H](CCl)CN3C(=O)c1cc2cc(NC(=O)Nc3ccc4[nH]c(C(=O)N5C[C@@H](CCl)c6c5cc(O)c5[nH]cc(C)c65)cc4c3)ccc2[nH]1
Given back: active

Asked: Lab log entry: C=C1C(=O)O[C@H]2[C@H]1CC/C(CNC(=O)c1cc3cc(OC)ccc3[nH]1)=C\CC[C@@]1(C)O[C@@H]21 — outcome as called in the assay?
Given back: inactive

----------
# Test system: RPMI-8226 leukemia
# method: NCI tumour cell line growth inhibition, 48 h
Exercise: state measured TGI for each of the compounds provided.

# annotated cases, reported TGI shown
[[record]]
compound = "COc1cc(OCc2nc3ccccc3n3cccc23)cc(OC)c1OC"
endpointname = "TGI"
valuereported = "14.6 µM"

[[record]]
compound = "COc1c2nc(CCl)[nH]c(=O)c2c(OC)c2nc(CCl)[nH]c(=O)c12"
endpointname = "TGI"
valuereported = "> 100 µM"

[[record]]
compound = "Cc1cc(I)cc(CN(C)CCCN2CCSCC2)c1O"
endpointname = "TGI"
valuereported = "44.4 µM"


Quick one: give me TGI for each item below, same order please.
1. COc1ccc2cc(Oc3ccc(Cl)cc3)c(=O)oc2c1
2. CC12OC(c3ccccc3)=CC(c3ccc(Cl)cc3)=C1C(c1ccccc1)=CC2=O (configuration not stated)
3. O=C1c2ccccc2-c2c1c1ccccc1c(=O)n2CCCNCCCn1ccnc1
4. Cn1ccnc1CC(C)(O)c1ccccc1 (configuration not stated)

Given back:
1: > 100 µM; 2: 47.2 µM; 3: 1.02 µM; 4: > 100 µM

Parameter requested: TGI. Apply to each item below.
1. COC(=O)c1c(O)ccc2c1c1c(n2Cc2ccccc2)C(=O)c2ccccc2C1=O
2. CC(=O)C(I(OS(=O)(=O)c1ccc(C)cc1)c1ccccc1)=P(c1ccccc1)(c1ccccc1)c1ccccc1
3. O=c1ccn(C2OC(CO)C(O)C2F)c(=O)[nH]1 (configuration not stated)

Given back:
1. 29.2 µM
2. 61.1 µM
3. > 1000 µM

Working through the 6 compounds below one at a time, give TGI for each.
1. CC(C)=CCC[C@@H](C)C1=C(O)C(O)C(C)=C2N=C(c3ccccc3)C(=O)OC21 (some centres not stated)
2. O=C1c2cccc3cc([N+](=O)[O-])cc(c23)C(=O)N1CCCN1CCN(CCCNc2ccc3ncn4c5ccccc5c(=O)c2c34)CC1
3. Nc1ccc(N(S(=O)(=O)c2ccccc2)S(=O)(=O)c2ccccc2)c(Cl)c1
4. O=C1OC(CC(=O)c2ccc(Cl)c(Cl)c2)C(Cl)=C1Cl (configuration not stated)
5. COCC(N=CN1CCCc2ccccc2[C@@H]1CCCCl)C(C)(C)C (some centres not stated)
6. CSc1ccc(C2=NN(C(=O)c3ccc(F)cc3)C(c3ccc(F)cc3)C2)cc1 (configuration not stated)

Given back:
> 7.03 µM
> 50 µM
> 100 µM
> 100 µM
8.95 µM
4.2 µM
